biological target: T1, human CD47ECD His tagged protein (human, UniProt Q08722 19-139, limits assumed); experiment: SPR (Biacore 3000); antibody captured on anti-human Fc chip, monovalent HuCD47ECD 8xHis injected
T1 construct: extracellular domain; also called HuCD47ECD 8xHis; monovalent CD47ECD His tagged protein
T1 sequence (Q08722 19-139 limits assumed): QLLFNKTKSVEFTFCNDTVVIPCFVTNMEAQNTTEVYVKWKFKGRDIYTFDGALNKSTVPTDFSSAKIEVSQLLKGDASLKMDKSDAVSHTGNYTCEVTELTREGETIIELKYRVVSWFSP
Property Measured: Kd (nM)
All answers are understood in nM, so give the number only.

Examples from the recorded data:
Binder | Kd, nM
D8S1 mouse/human chimeric anti-human CD47 antibody (antibody, V domains shown, also called chimeric D8S1) VH: EVQLQQSVAELVRPGASVKLSCTVSGFNIKNTYIYWVKQRPEQGLEWIGRIDPANGNTKDAPKFQGKATMTADTSSNTAYLQLSSLTSEDTAIYYCARGYGSGFAYWGQGTLVTVSA VL: DIQMTQTTSSLSASLGDRVTISCRASQDISNHLNWYQQKPDGIVKLLIYYTSRLHSGVPSRFSGSGSGTDYSLTISNLEQEDIATYFCQQGSTLPFTFGSGTKLEIK | 3.28
AB6.12, a humanized version of anti-CD47 antibody 2A1 from Celgene (antibody, from another filing, V domains shown) VH: QMQLVQSGAEVKKTGSSVKVSCKASGFNIKDYYLHWVRQAPGQALEWMGWIDPDQGDTEYAQKFQDRVTITRDRSMSTAYMELSSLRSEDTAMYYCNAAYGSSSYPMDYWGQGTTVTVSS VL: NIQMTQSPSAMSASVGDRVTITCKASQDIHRYLSWFQQKPGKVPKHLIYRANRLVSGVPSRFSGSGSGTEFTLTISSLQPEDFATYYCLQYDEFPYTFGGGTKVEIKR | 0.798

As a next step, examine the binder that follows.
[Q] Fill in the blank: the reported Kd of D125S3 mouse/human chimeric anti-human CD47 antibody (antibody, V domains shown, also called chimeric D125S3) VH: EVQLVESGGDLVKPGGSLNLSCAASGFTFSDYGMSWVRQTPDMRLEWVATISKYGTYTSYPDSVKGRFTISRSNAKNTLYLQMSSLKSADTALYYCARRFFGNYNYWYFDVWGAGTTVTVSS VL: DIVLTQSPASLAVSLGQRATFSCRASESVDEFGISYIHWYKKSPGQPPKLLIYRASTLESGISARFSGSGSGTDFTLTINPVETDDVATYYCQQSNQDPLTFGAGTKLELK is ____.
[A] 3.62
